- TARGET_OF_ASSAY: T1R1/T1R3 receptor (Felis catus, UniProt E3UMS2)
- ASSAY_COMMENT: cell-based
- PROTOCOL_CONDITIONS: T1R1/T1R3 EC50 +20 mM L-alanine, +20 mM L-alanine
As shown below, each of these compounds has a reported EC50 value.

Please review the entries below; each comes with its answer.
Enquiry: Give the measured EC50 for O=C(NCCc1ccccc1)c1ccc2c(c1)OCO2
Return: > 1000 µM

Enquiry: Quote EC50 reported for O=C(NCCc1ccccc1)c1ccccc1 [N-phenethylbenzamide] please.
Return: > 1000 µM

---
Enquiry: Specify measured EC50 for Nc1ccccc1C(=O)NCCc1ccccc1 [2-amino-N-phenethylbenzamide] .
Return: 480 µM

* * *

The entries below come with measured EC50 values attached.
- TARGET_OF_ASSAY: T1R1/T1R3 receptor (Felis catus, UniProt E3UMS2)
- ASSAY_COMMENT: cell-based
- Format: cell-based
Answer with a number only, understood to be in µM.

Enquiry: Check the records and state EC50 for CCC(CC)NC(=O)/C=C/c1ccc(OC)cc1
Return: 80

New cases:
Enquiry: Determine from records and report EC50 for Nc1nc2c(ncn2[C@@H]2O[C@H](COP(=O)(O)O)[C@@H](O)[C@H]2O)c(=O)[nH]1 [GMP, guanosine monophosphate, reference compound]
Return: 50

* * *

- TARGET_OF_ASSAY: T1R1/T1R3 receptor (Felis catus, UniProt E3UMS2)
- ASSAY_COMMENT: Example 8: agonist screening of transmembrane compounds on T1R1/T1R3 in HEK293 cells
- Format: cell-based, cat
- PROTOCOL_CONDITIONS: transmembrane compound tested at 0.01, 0.1 and 1 mM; HEK293 cells expressing T1R1/T1R3; intracellular calcium
MEASURED_ENDPOINT: T1R1/T1R3 agonist

Enquiry: Please report the measured T1R1/T1R3 agonist for O=C1C(=O)N(Cc2ccccc2)C(=S)N1Cc1ccccc1
Return: No

Enquiry: Consider the compound O=C(CN1C(=O)C(=O)N(Cc2ccccc2)C1=O)c1ccc2c(c1)OCCO2 and give its recorded T1R1/T1R3 agonist.
Return: No

Enquiry: Read the entry O=C(CN1C(=O)C(=O)N(Cc2ccccc2)C1=O)c1ccc(Br)cc1 and write its reported T1R1/T1R3 agonist.
Return: No

Enquiry: Return T1R1/T1R3 agonist for the following compound: O=C(CN1C(=O)C(=O)N(Cc2ccccc2)C1=O)c1ccc2c(c1)OCCCO2
Return: No

Enquiry: Answer with the recorded T1R1/T1R3 agonist of Cl.N[C@@H](Cc1ccccc1)C(=O)OCc1ccccc1 only.
Return: Yes

Enquiry: Return T1R1/T1R3 agonist (reported value) for this compound: Cc1ccc(CNC(Cc2ccccc2)C(=O)O)cc1 (stereo not drawn)
Return: No

***
Enquiry: Respond only with T1R1/T1R3 agonist recorded for COC(=O)[C@H](Cc1ccccc1)NCc1ccccc1.Cl
Return: Yes

Enquiry: Indicate its recorded T1R1/T1R3 agonist; the compound in question is O=C(CN1C(=O)C(=O)N(Cc2ccccc2)C1=O)c1ccc(Cl)s1
Return: No

* * *

- TARGET_OF_ASSAY: cat T1R1/T1R3 receptor (Felis catus, UniProt A0ABI7Z2I4)
- Sequence (A0ABI7Z2I4 171-420): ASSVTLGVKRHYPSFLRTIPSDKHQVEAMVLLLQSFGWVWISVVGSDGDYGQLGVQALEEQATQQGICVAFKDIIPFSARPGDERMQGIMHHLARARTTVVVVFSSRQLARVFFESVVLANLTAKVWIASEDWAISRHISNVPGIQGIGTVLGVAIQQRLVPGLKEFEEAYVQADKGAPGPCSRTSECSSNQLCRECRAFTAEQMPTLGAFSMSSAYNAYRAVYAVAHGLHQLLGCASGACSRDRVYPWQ
- Sequence (Q49KI5 with tags, fused parts or gaps E206Q/N523D/F654L partner): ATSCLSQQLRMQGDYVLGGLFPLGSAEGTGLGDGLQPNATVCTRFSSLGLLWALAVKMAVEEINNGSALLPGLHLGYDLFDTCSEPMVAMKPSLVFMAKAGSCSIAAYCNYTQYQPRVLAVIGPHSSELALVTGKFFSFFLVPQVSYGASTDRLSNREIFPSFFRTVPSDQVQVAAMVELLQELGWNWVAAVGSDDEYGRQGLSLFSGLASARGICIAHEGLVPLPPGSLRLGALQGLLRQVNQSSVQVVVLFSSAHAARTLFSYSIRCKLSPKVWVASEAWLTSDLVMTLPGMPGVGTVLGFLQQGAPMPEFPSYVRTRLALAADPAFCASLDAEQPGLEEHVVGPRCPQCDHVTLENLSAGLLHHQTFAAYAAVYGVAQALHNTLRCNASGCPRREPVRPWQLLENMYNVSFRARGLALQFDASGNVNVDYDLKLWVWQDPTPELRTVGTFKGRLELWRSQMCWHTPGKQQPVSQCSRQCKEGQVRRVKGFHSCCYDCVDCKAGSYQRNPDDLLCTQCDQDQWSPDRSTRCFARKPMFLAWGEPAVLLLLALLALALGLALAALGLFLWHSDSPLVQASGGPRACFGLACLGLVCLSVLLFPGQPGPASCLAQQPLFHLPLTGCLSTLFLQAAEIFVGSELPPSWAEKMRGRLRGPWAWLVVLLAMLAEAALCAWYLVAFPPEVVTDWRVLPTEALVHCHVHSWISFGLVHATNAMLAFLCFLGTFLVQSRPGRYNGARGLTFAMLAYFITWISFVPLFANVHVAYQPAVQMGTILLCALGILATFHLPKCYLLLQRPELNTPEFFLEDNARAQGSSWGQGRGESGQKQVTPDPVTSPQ
- ASSAY_COMMENT: cell-based
- PROTOCOL_CONDITIONS: read-out: EC50
MEASURED_ENDPOINT: EC50 (mM)
State just the number; it will be interpreted in mM.

Observe how each entry below is paired with its result.
Enquiry: Supply EC50 value. Item: N[C@@H](Cc1ccccc1)C(=O)O [L-Phenylalanine, reference compound]
Return: 1.9

Enquiry: Query EC50 for N[C@@H](Cc1c[nH]c2ccccc12)C(=O)O
Return: 0.9

Enquiry: Give EC50 for N[C@@H](Cc1c[nH]cn1)C(=O)O
Return: 10.2

Enquiry: Hello, please tell me recorded EC50 for this one: N[C@@H](CS)C(=O)O
Return: 39.5

Enquiry: Give EC50 for the following compound: N[C@@H](CO)C(=O)O
Return: 31.5

Here is another compound to look at.
Enquiry: For the compound N[C@@H](Cc1ccc(O)cc1)C(=O)O , give its measured EC50 value.
Return: 10.3

Values were extracted from patent US20180168208A1.
